assay conditions: in n-butanol, 288.15 K
recorded endpoint: solubility (mole fraction)

{"line notation": "N[C@@H](Cc1c[nH]c2ccccc12)C(=O)O", "recorded endpoint": "solubility (mole fraction)", "result value": 0.00012}

----------
assay conditions: in methanol, 293.15 K
recorded endpoint: solubility (mole fraction)

{"line notation": "N[C@@H](Cc1c[nH]c2ccccc12)C(=O)O", "result value": 0.0008}

----------
assay conditions: in n-butanol, 303.15 K

{"line notation": "N[C@@H](Cc1c[nH]c2ccccc12)C(=O)O", "solubility (mole fraction)": 0.0002}

----------
assay conditions: in n-butanol, 333.15 K

{"line notation": "N[C@@H](Cc1c[nH]c2ccccc12)C(=O)O", "solubility (mole fraction)": 0.00059}

----------
assay conditions: in water, 288.15 K

{"line notation": "N[C@@H](Cc1c[nH]c2ccccc12)C(=O)O", "solubility (mole fraction)": 0.00113}

----------
assay conditions: in acetone, 333.15 K
recorded endpoint: solubility (mole fraction)

{"line notation": "N[C@@H](Cc1c[nH]c2ccccc12)C(=O)O", "recorded endpoint": "solubility (mole fraction)", "result value": 0.00069}

----------
assay conditions: in ethanol, 303.15 K

{"line notation": "N[C@@H](Cc1c[nH]c2ccccc12)C(=O)O", "solubility (mole fraction)": 0.00024}

----------
assay conditions: in n-butanol, 278.15 K

{"line notation": "N[C@@H](Cc1c[nH]c2ccccc12)C(=O)O", "solubility (mole fraction)": 0.0001}

----------
assay conditions: in acetonitrile, 303.15 K
recorded endpoint: solubility (mole fraction)

{"line notation": "N[C@@H](Cc1c[nH]c2ccccc12)C(=O)O", "result value": "5e-05"}

----------
assay conditions: in ethyl acetate, 318.15 K
recorded endpoint: solubility (mole fraction)

{"line notation": "N[C@@H](Cc1c[nH]c2ccccc12)C(=O)O", "recorded endpoint": "solubility (mole fraction)", "result value": 0.00028}

----------
assay conditions: in methanol, 283.15 K

{"line notation": "N[C@@H](Cc1c[nH]c2ccccc12)C(=O)O", "solubility (mole fraction)": 0.00066}

----------
assay conditions: in acetone, 328.15 K
recorded endpoint: solubility (mole fraction)

{"line notation": "N[C@@H](Cc1c[nH]c2ccccc12)C(=O)O", "result value": 0.00056}

----------
assay conditions: in acetone, 313.15 K
recorded endpoint: solubility (mole fraction)

{"line notation": "N[C@@H](Cc1c[nH]c2ccccc12)C(=O)O", "recorded endpoint": "solubility (mole fraction)", "result value": 0.00031}

----------
assay conditions: in acetonitrile, 283.15 K

{"line notation": "N[C@@H](Cc1c[nH]c2ccccc12)C(=O)O", "solubility (mole fraction)": "2e-05"}

----------
assay conditions: in ethanol, 293.15 K

{"line notation": "N[C@@H](Cc1c[nH]c2ccccc12)C(=O)O", "solubility (mole fraction)": 0.00017}

----------
assay conditions: in ethyl acetate, 328.15 K

{"line notation": "N[C@@H](Cc1c[nH]c2ccccc12)C(=O)O", "solubility (mole fraction)": 0.00041}

----------
assay conditions: in acetonitrile, 323.15 K

{"line notation": "N[C@@H](Cc1c[nH]c2ccccc12)C(=O)O", "solubility (mole fraction)": 0.00012}

----------
assay conditions: in ethyl acetate, 283.15 K

{"line notation": "N[C@@H](Cc1c[nH]c2ccccc12)C(=O)O", "solubility (mole fraction)": "5e-05"}
